Attribution: PubChem BioAssay (NCI)

Test system: CCRF-CEM leukemia
Experiment description: NCI-60 one-dose screen, 48 h (100 = growth as untreated, 0 = no growth, -100 = all killed)
Setup conditions: 10 µM unless noted
Compounds without any hit were thinned out: in the full panel of roughly 83,000, 20% have a hit.
Each item that follows carries a reported growth.
Write the number in % without appending the unit.

As a guide, the following entries are already answered.
{"Molecule": "O=C(COc1ccc(C2SCC(=O)N2c2ccc(F)cc2)cc1)c1ccccc1 (stereo unspecified)", "growth (%)": 95.8}
{"Molecule": "N#C/C(=C\\c1ccc2ccccc2c1)C(=O)Nc1sc2c(c1C#N)CCC2", "growth (%)": 103}
{"Molecule": "COc1ccc([C@H]2[C@H](O)C(=O)N2c2cc(OC)c(OC)c(OC)c2)cc1Cl", "growth (%)": 16.4}

(Q) Give the reported growth for this molecule. "O=S(=O)(Nc1cc(Cl)cc(Cl)c1)c1ccc(-c2cnc(C3CC3)o2)cc1"
(A) 17.2

(Q) Give the reported growth for this molecule. "Cc1csc(Nc2cccc(Nc3nc(C)cs3)c2)n1"
(A) 89

(Q) Give the reported growth for this molecule. "C#CCOc1ccc(/C=N/Nc2nc(-c3cc4cc(Br)cc(Br)c4oc3=O)cs2)cc1"
(A) 94.4

(Q) Give the reported growth for this molecule. "C#C[C@]1(O)CC[C@H]2[C@@H]3CC=C4c5sc(-c6cccc(F)c6)nc5CC[C@]4(C)[C@H]3CC[C@@]21C"
(A) 75.1

(Q) Give the reported growth for this molecule. C#CCOc1ccccc1C(Nc1ccccc1)c1nnnn1C1CCCCC1 (stereo unspecified)
(A) 92.7

(Q) Give the reported growth for this molecule. CCC(CC)n1c(=O)c(SC2=NC3C(NN2)N(CC)C(=O)N3CC)c(C(=O)O)c2ccccc21 (stereo unspecified)
(A) 16.6

(Q) Give the reported growth for this molecule. "COc1ccc(/C=N/Nc2nc(Nc3ccccc3)nc(Nc3ccc(S(N)(=O)=O)cc3)n2)cc1"
(A) 45.9

(Q) Give the reported growth for this molecule. CCN1C(=O)N(CC)C2SC(N/N=C/c3ccccc3F)=NC21 (stereo unspecified)
(A) 20

###

Test system: HS 578T breast
Experiment description: NCI-60 one-dose screen, 48 h
Setup conditions: 10 µM unless noted
The panel holds about 83,000 compounds, 20% with a hit somewhere; the sample as a whole holds those more often. Calls of active or inactive are those of the source. The calls were made as follows: active = growth percent below 10; inactive = the rest.
Your reply should match one of these outcome classes. t (active), f (inactive)

Solved cases below.
{"Compound": "C#CCOc1ccc(/C=N/Nc2nc(-c3cc4cc(Br)cc(Br)c4oc3=O)cs2)cc1", "Target under test": "HS 578T breast", "Answer label": "f"}
{"Compound": "CCOC(=O)C1=C(C)Nc2nnc(Nc3ccccc3)n2C1c1ccccc1 (centres undefined)", "Target under test": "HS 578T breast", "Answer label": "f"}
{"Compound": "O=C(Nc1ccc(-c2nc(-c3cccc(O)c3)c(-c3ccnc(Br)c3)[nH]2)cc1)c1ccccc1", "Target under test": "HS 578T breast", "Answer label": "t"}

(Q) Could you kindly confirm the outcome this assay logged for "CC(C)C[C@H]1C(=O)O[C@H](C(C)C)C(=O)N(C)[C@@H](C(C)C)C(=O)O[C@H](C(C)C)C(=O)N(C)[C@@H](C(C)C)C(=O)O[C@H](C(C)C)C(=O)N1C" ?
(A) f

(Q) Could you kindly confirm the outcome this assay logged for "Cc1ccc(Cc2cnc(NC(=O)/C(C#N)=C/c3ccc(-c4ccc(Cl)cc4)o3)s2)cc1" ?
(A) f

(Q) Could you kindly confirm the outcome this assay logged for "C=CCn1c(SCC(=O)Nc2ccc(OC)cc2)nnc1-c1ccc(Cl)cc1" ?
(A) f

(Q) Could you kindly confirm the outcome this assay logged for "O=C(NCCCNc1cc(-c2cn(-c3ccccc3)nc2-c2cccc(O)c2)ccn1)Nc1ccc(F)cc1" ?
(A) t

(Q) Could you kindly confirm the outcome this assay logged for "CC(=O)C1=NN(c2ccc(Cl)cc2)C(=O)CN1C" ?
(A) f

(Q) Could you kindly confirm the outcome this assay logged for "COc1cc2oc(-c3cccc(NC(=O)c4cc(NC(=O)[C@H](C)N)ccc4Cl)c3)cc(=O)c2c(OC)c1OC" ?
(A) f

(Q) Could you kindly confirm the outcome this assay logged for "O=S(=O)(Nc1ccc2c(c1)OC(F)(F)O2)c1ccc(-c2cnc(C3CC3)o2)cc1" ?
(A) f

(Q) Could you kindly confirm the outcome this assay logged for "COc1ccc(-c2nnc(/N=C3/C(=O)Nc4ccc(Br)cc43)o2)cc1" ?
(A) f

(Q) Could you kindly confirm the outcome this assay logged for "O=C1[C@H]2Cc3c([nH]c4ccccc34)[C@@H](c3c(Cl)cccc3Cl)N2C(=O)CN1C1CCN(Cc2ccccc2)CC1" ?
(A) f

(Q) Could you kindly confirm the outcome this assay logged for "N#C/C(=C\c1ccc2ccccc2c1)C(=O)Nc1sc2c(c1C#N)CCC2" ?
(A) f

(Q) Could you kindly confirm the outcome this assay logged for "O=C(NNc1nc2cc(F)cc(F)c2n2cccc12)c1ccncn1" ?
(A) f

(Q) Could you kindly confirm the outcome this assay logged for "CCc1ccc(NC(=O)N[C@@H](Cc2cccc(F)c2)C(=O)N[C@@H]2C(=O)N3CCC[C@H]3C(=O)N3CCCC[C@H]3C(=O)N[C@@H](C)C(=O)N3C[C@H](C)C[C@H]3C(=O)O[C@H]2C)c(F)c1" ?
(A) f

(Q) Could you kindly confirm the outcome this assay logged for "O=C1c2c(O)cc(O)cc2O[C@@H](c2ccc(O)cc2)[C@@H]1c1c(O)cc(O)c2c(=O)cc(-c3ccc(O)c(O)c3)oc12" ?
(A) f

(Q) Could you kindly confirm the outcome this assay logged for "Cc1ccc(/C=C/CC(=O)Nc2ccc(C(=O)Nc3ccc(F)cc3N)cc2)cn1" ?
(A) f

(Q) Could you kindly confirm the outcome this assay logged for "COc1ccc(-c2nc(SCCC(C)C)nc(N/N=C\c3ccc(O)cc3)c2C#N)cc1" ?
(A) f

(Q) Could you kindly confirm the outcome this assay logged for "CCN1C/C(=N\S(=O)(=O)c2ccccc2)N(CC)C1=S" ?
(A) f
